- target system: T1, human CCL17 (human, UniProt Q92583 24-94)
- T1 construct: Biotinylated in the Fab ELISAs; also called huCCL17; Bt-huCCL17
- T1 sequence: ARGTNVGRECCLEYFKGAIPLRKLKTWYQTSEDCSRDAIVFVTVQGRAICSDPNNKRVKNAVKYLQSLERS
- assay remarks: MSD-SEA; affinity for human CCL17 against that for cyno CCL17
Please use t whenever Fold binding human/cyno CCL17 is not below 10 fold, and f whenever it is.

Before answering, review these 5 worked examples.
C17B238 (antibody, V domains shown, Full IgG1, kappa) VH: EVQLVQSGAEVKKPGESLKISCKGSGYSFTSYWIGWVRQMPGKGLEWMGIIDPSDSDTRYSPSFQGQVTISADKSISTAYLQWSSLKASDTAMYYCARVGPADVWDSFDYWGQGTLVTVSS VL: DIVMTQSPDSLAVSLGERATINCKSSQSVLISAFNQNPLAWYQQKPGQPPKLLIYDASTRESGVPDRFSGSGSGTDFTLTISSLQAEDVAVYYCQQYQFIPFTFGQGTKVEIK: t
C17B234 (antibody, V domains shown, Full IgG1, kappa) VH: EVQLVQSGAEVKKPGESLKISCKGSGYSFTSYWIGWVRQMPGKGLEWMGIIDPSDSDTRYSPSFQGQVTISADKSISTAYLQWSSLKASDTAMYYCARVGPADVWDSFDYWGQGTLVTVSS VL: DIVMTQSPDSLAVSLGERATINCKSSQSVLLSFDNINKLAWYQQKPGQPPKLLIYNASTRESGVPDRFSGSGSGTDFTLTISSLQAEDVAVYYCQQFYSVPSTFGQGTKVEIK: t
C17B236 (antibody, V domains shown, Full IgG1, kappa) VH: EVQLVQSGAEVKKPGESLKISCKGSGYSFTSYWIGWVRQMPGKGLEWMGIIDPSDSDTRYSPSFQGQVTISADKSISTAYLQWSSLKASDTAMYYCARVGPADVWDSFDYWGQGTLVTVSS VL: DIVMTQSPDSLAVSLGERATINCKSSQSVLLSPWNSNQLAWYQQKPGQPPKLLIYGASTRESGVPDRFSGSGSGTDFTLTISSLQAEDVAVYYCQQYYLIPSTFGQGTKVEIK: f
C17B260 (antibody, IgG1, V domains shown, Expressed as IgG1; Light chain N50G (Kabat) variant of C17B234) VH: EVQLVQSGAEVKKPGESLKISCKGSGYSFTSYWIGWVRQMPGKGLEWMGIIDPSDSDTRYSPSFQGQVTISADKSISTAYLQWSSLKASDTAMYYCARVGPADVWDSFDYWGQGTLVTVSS VL: DIVMTQSPDSLAVSLGERATINCKSSQSVLLSFDNINKLAWYQQKPGQPPKLLIYGASTRESGVPDRFSGSGSGTDFTLTISSLQAEDVAVYYCQQFYSVPSTFGQGTKVEIK: t
C17B262 (antibody, IgG1, V domains shown, Expressed as IgG1; Light chain N50S (Kabat) variant of C17B234) VH: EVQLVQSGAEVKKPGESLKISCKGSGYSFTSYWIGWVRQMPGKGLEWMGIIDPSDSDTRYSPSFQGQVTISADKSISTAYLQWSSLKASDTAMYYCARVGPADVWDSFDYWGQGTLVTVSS VL: DIVMTQSPDSLAVSLGERATINCKSSQSVLLSFDNINKLAWYQQKPGQPPKLLIYSASTRESGVPDRFSGSGSGTDFTLTISSLQAEDVAVYYCQQFYSVPSTFGQGTKVEIK: t

Okay, next one:
Given the entry C17B241 (antibody, V domains shown, Full IgG1, kappa) VH: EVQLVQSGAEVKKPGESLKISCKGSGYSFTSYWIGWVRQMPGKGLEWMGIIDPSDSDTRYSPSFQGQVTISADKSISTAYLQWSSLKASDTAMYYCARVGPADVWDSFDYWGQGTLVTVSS VL: DIVMTQSPDSLAVSLGERATINCKSSQSVLNSFTNNNALAWYQQKPGQPPKLLIYEASTRESGVPDRFSGSGSGTDFTLTISSLQAEDVAVYYCQQTNSIPLTFGQGTKVEIK , answer whether its Fold binding human/cyno CCL17 meets or surpasses 10 fold. t
